# credit: ChEMBL document CHEMBL1154371

Molecular target: Transcription factor p65 (Homo sapiens)
Sequence (Q04206 whole entry): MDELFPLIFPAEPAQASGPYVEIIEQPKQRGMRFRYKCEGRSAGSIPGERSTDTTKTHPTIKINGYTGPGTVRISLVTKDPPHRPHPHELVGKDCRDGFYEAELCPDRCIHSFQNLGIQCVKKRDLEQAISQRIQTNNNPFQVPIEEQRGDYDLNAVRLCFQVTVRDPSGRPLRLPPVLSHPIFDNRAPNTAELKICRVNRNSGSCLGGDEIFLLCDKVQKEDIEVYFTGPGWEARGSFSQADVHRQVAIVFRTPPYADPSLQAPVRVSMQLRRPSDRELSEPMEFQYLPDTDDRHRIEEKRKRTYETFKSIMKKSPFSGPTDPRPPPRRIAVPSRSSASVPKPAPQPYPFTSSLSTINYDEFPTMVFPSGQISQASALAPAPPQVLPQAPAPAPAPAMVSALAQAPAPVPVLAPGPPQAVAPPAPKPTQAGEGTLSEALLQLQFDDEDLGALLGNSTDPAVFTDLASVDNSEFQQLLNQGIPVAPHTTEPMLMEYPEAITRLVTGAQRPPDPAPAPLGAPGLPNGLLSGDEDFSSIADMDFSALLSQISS
Assay: Inhibition of nuclear factor NF-kappa-B p65 subunit after 1 hr by ELISA
IC50 values, listed per item
Only the number, expressed in µM, is required.

{"Line Notation": "CC(C)=CCc1c(O)c(CC=C(C)C)c2oc3c(O)cccc3c(=O)c2c1O", "IC50, µM": 11.3}

Write down the reported IC50 of CC(C)=CCc1c(O)c(CC=C(C)C)c2oc3c(O)ccc(O)c3c(=O)c2c1O , test system: Transcription factor p65 (Homo sapiens).
19

Also COc1c(O)cc2oc3cc(O)c(CC=C(C)C)c(O)c3c(=O)c2c1CC=C(C)C , if possible.
15.9

Note, next up: COc1c(O)cc2oc3cc(O)c(CC=C(C)C)c(O)c3c(=O)c2c1CCC(C)(C)O
3.2

Now the compound COc1cc2oc3cc(O)c(OC)c(CC=C(C)C)c3c(=O)c2c(O)c1CC=C(C)C
12.1
